measurement_target: Taq DNA polymerase (Thermus aquaticus, UniProt P19821 P19821:1-832)
Sequence (P19821 whole entry, one chain of several): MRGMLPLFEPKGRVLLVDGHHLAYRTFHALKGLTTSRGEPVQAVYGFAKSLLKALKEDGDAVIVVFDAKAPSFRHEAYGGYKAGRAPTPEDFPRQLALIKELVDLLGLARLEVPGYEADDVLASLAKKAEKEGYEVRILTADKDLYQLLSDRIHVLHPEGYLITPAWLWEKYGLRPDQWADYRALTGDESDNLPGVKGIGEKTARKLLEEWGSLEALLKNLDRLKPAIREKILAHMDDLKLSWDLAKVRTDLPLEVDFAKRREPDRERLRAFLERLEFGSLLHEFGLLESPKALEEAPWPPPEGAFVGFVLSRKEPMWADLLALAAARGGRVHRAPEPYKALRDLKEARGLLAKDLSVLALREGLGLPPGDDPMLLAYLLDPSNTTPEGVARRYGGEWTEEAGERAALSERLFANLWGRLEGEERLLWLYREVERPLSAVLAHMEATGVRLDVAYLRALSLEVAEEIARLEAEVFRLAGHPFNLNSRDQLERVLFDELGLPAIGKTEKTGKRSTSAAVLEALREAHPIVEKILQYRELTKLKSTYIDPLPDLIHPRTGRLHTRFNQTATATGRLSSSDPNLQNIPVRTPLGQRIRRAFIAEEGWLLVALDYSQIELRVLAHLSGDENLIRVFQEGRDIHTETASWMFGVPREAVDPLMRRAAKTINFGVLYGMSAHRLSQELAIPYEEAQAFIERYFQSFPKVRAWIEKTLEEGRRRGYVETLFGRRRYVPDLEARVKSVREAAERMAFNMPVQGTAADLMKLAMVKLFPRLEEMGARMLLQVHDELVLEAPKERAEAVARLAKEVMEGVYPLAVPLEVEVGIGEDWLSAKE
assay_name: FP filter; printed as >>1000; 55C; IT50 <40C
condition_parameters: tags: rTaq, 94 kDa, Roche Molecular Systems; label: end-labeled
endpoint_name: Kd

Tell us which Kd value is on record for ligand 18 (ssDNA) DNA: TTCTCGGTTGGTCTCTGGCGGAGCATACACGACGTCATTCTAGCGTTTTGTCTTGTGTATGATTCGCTTTTCCC > 1 nM
